assay: qHTS Screen of the MIPE 4.0 Collection Against Ewings Sarcoma (EW8) (AID 1259255); conditions: EW8 Ewing sarcoma viability, CellTiter-Glo, 48 h; series mostly up to 45.8 µM; note: nearly all actives have a fitted effect of over 35% in size; note: potency is the fitted concentration of half-maximal effect;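 for viability: 100% = DMSO-treated cells and 0% = medium-only wells without cells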
Inconclusive results are not listed. The source made the active and inactive calls. Calls come from the whole dose curve; as a rule, active = well fitted inhibition curve with a large enough effect; inconclusive = small, poorly fitted or top-dose-only effect; inactive = no such curve, though single readings can be large or run the other way.
Measure name: Potency

>  <Compound>
COc1ccc(COc2cc3oc(=O)c4cc(C(C)O)ccc4c3cc2OC)cc1 (stereo unspecified)

>  <Result value>
20.9 µM (active)

$$$$
>  <Compound>
Oc1ccc(C2CNCCc3c2cc(O)c(O)c3Cl)cc1 (stereo unspecified)

>  <Result value>
inactive

$$$$
>  <Compound>
CC(C)NCC(O)COc1ccc(COCCOC(C)C)cc1 (stereo unspecified)

>  <Result value>
inactive

$$$$
>  <Compound>
O=C(O)COCCN1CCN(C(c2ccccc2)c2ccc(Cl)cc2)CC1 (stereo unspecified)

>  <Result value>
inactive

$$$$

Please fill in: Potency reported for "COCCNCCCn1c(C(=O)CF)c(-c2ccc(C)cc2)c2c(N)ncnc21" = inactive

The value of Potency measured for the compound "NS(=O)(=O)c1cc2c(cc1Cl)NC=NS2(=O)=O" turned out to be inactive

----------
system: DIV17; experiment: qHTS profiling for inhibitors of Plasmodium falciparum proliferation (AID 504749); note: nearly all actives have a fitted effect of over 60% in size; details: P. falciparum in erythrocytes, SYBR Green DNA, 72 h; series mostly up to 28.7 µM
Records with an inconclusive call do not appear. The source made the active and inactive calls. Calls come from the whole dose curve; as a rule, active = well fitted inhibition curve with a large enough effect; inconclusive = small, poorly fitted or top-dose-only effect; inactive = flat fitted curve, though single readings scatter.
Your answer must be one of the following: T for active, F for inactive

>  <Compound>
OC(CN1CCC(Cc2ccc(F)cc2)CC1)c1ccc(Cl)cc1 (configuration not stated)

>  <Category>
T

$$$$

Would you mind telling me which call this test gave "CCOC(=O)C1=C[C@]2(CC)CCCN3CCc4c(n1c1ccccc41)[C@@H]32" ?
T

// return assay outcome for CC(C[N+](C)(C)C)OC(N)=O (configuration not stated)
F

Please share the test call associated with "CCOC(=O)N1CCC(=C2c3ccc(Cl)cc3CCc3cccnc32)CC1" .
T

----------
experiment: qHTS for identification of novel therapeutic agents for treatment of microphthalmiaassociated transcription factor (MiT) renal cell carcinoma (RCC) (AID 1963991); settings: TFE3-RCC viability, CellTiter-Glo, 48 h; measured here: UOK145 Z-AUC; stronger effect = lower value;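 note: curves scaled with 100% = DMSO viability and 0% = empty wells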
Results filed as inconclusive are left out.
Catalogue of z-score values
Just the number, please, no unit attached.

Previously resolved entries follow.
>  <Molecule>
CC(C)(Sc1ccc(CCN(CCCCC2CCCCC2)C(=O)NC2CCCCC2)cc1)C(=O)O

>  <z-score>
0.555

$$$$
>  <Molecule>
NC(=O)C1CCCc2c1[nH]c1ccc(Cl)cc21 (centres undefined)

>  <z-score>
0.151

$$$$
>  <Molecule>
CC[C@@H](C)[C@H](NC(=O)[C@H](CC1CCCCC1)NC(=O)c1ccno1)C(=O)N1CCC2(CCc3ccccc32)CC1

>  <z-score>
-0.242

$$$$
>  <Molecule>
CCn1cc(C(=O)O)c(=O)c2cc(F)c(N3CCNC(C)C3)c(F)c21 (centres undefined)

>  <z-score>
0.675

$$$$
>  <Molecule>
O=C(O)COCCN1CCN(C(c2ccccc2)c2ccc(Cl)cc2)CC1 (centres undefined)

>  <z-score>
0.674

$$$$

Briefly, z-score measured for "Cc1n[nH]c(C)c1Cc1sc2c(c1C(=O)N1C[C@H](O)CO1)c(=O)n(C)c(=O)n2CC(C)C" : 0.704

Sure, the documented z-score for "Cc1cnc(NC(=O)C2=C(O)c3ccccc3S(=O)(=O)N2C)s1" is 0.231

z-score reading for "COc1ccc(-c2ccc3c(N4CCOC[C@H]4C)nc(N4CCOC[C@H]4C)nc3n2)cc1CO" : -2.13

Input "Nc1nc2c(ncn2COCCO)c(=O)[nH]1" . Output z-score: 0.51

// recorded z-score for "O=c1ncn2nc(Sc3ccc(F)cc3F)ccc2c1-c1c(Cl)cccc1Cl" : 1.1

----------
Assay: Quantitative High-Throughput drug screen in 47 multiple myeloma cell lines against the NCATS MIPE library collection: FR4_PLB cell viability assay (AID 1918924; note: nearly all actives have a fitted effect of over 35% in size)
Settings: FR4_PLB myeloma cells viability, CellTiter-Glo ATP, 48 h; series mostly up to 45.8 µM
Description: PI: Beverly A. Mock Ph.D. Laboratory of Cancer Biology and Genetics, Center for Cancer Research, National Cancer Institute, National Institute of Health, Bethesda, Maryland […] 5; Detector; 425V; Luminescence; Viewlux PerkinElmer. […] 1. […] Briefly, the corresponding myeloma cell lines were screened in 1,536-well plates with 500 cells, 5-uL per well for inhibition of cell viability (assessed by measuring ATP levels with CellTiterGlo). […]
Inconclusive results are not listed. Active and inactive are the calls of the source. Calls follow the shape of the dose curve; as a rule, active = well fitted cell-killing curve with a large enough effect; inconclusive = small, poorly fitted or top-dose-only effect, or effect the other way; inactive = no such curve, though single readings can be large or run the other way.
Valid outcomes are listed here; reply with one: label 1 for active, label 0 for inactive

Some solved cases for reference:
>  <Compound>
CC(C)(C)NCC(O)c1ccc(O)c(CO)c1 (configuration not stated)

>  <Category>
label 0

$$$$
>  <Compound>
COc1ccc([C@@H]2CC(=O)c3c(O)cc(O[C@@H]4O[C@H](CO[C@@H]5O[C@@H](C)[C@H](O)[C@@H](O)[C@@H]5O)[C@@H](O)[C@H](O)[C@@H]4O)cc3O2)cc1O

>  <Category>
label 0

$$$$
>  <Compound>
Cc1oncc1C(=O)Nc1ccc(C(F)(F)F)cc1

>  <Category>
label 0

$$$$
>  <Compound>
O=C(O)COCCN1CCN(C(c2ccccc2)c2ccc(Cl)cc2)CC1 (configuration not stated)

>  <Category>
label 0

$$$$

I'd appreciate the recorded outcome for COc1ccc(COc2cc3oc(=O)c4cc(C(C)O)ccc4c3cc2OC)cc1 (configuration not stated) from this test.
label 1

So what was the verdict on "CC[C@H](Nc1ncnc2nc[nH]c12)c1nc2cccc(F)c2c(=O)n1-c1ccccc1" in this test?
label 1

Please state the recorded outcome for this compound: "Cc1ccc(N(CC2=NCCN2)c2cccc(O)c2)cc1"
label 1

----------
experiment: qHTS of pediatric cancer cell lines to identify multiple opportunities for drug repurposing: Primary screen for OHS-50 cells (AID 1347103); conditions: OHS-50 osteosarcoma viability, CellTiter-Glo luminescence, 48 h; series mostly up to 57.3 µM; note: nearly all actives have a fitted effect of over 40% in size
Inconclusive results are not listed. The source made the active and inactive calls. Calls come from the whole dose curve; as a rule, active = well fitted cell-killing curve with a large enough effect; inconclusive = small, poorly fitted or top-dose-only effect; inactive = no such curve, though single readings can be large or run the other way.
Pick from active, inactive when you respond.

// known answers, use as guide
>  <Compound>
CNC(=O)c1ccccc1Sc1ccc2c(/C=C/c3ccccn3)n[nH]c2c1

>  <Category>
active

$$$$
>  <Compound>
COc1ccccc1-c1cccc(-c2c(O)c3cc(C#N)c(Cl)cc3[nH]c2=O)c1

>  <Category>
inactive

$$$$

Please indicate how the test categorized CCn1cc(C(=O)O)c(=O)c2cc(F)c(N3CCNC(C)C3)c(F)c21 (configuration not stated) .
inactive

Kindly provide the recorded test outcome for the following compound: "Cc1cn[nH]c1"
active

Name the outcome recorded for "COc1ccc2c3n(c(=NC(=O)c4cccnc4)nc2c1OC)CCN3" in the assay.
active

GET /call?item= "OCCC#Cc1nc(-c2ccc(F)cc2)c(-c2ccncc2)n1CCCc1ccccc1" returns the recorded outcome of this test.
active

Would you mind telling me which call this test gave "N[C@@H]1CONC1=O" ?
inactive

Test call, this compound: "NNCCc1ccccc1"
inactive

Which outcome was assigned to "COc1cc2c(cc1OC)CN(CCc1ccc(NC(=O)c3cccc4c(=O)c5cccc(OC)c5[nH]c34)cc1)CC2" in this test?
inactive

Query: recorded result category for CCN(CC)CCCC(C)Nc1ccnc2cc(Cl)ccc12 (configuration not stated) in this test
active

Call for entry "O=C(Nc1ccc(F)c(C(F)(F)F)c1)Nc1nnc(-c2ccncc2)s1" :
inactive

Answer briefly: the call reported for "Cc1cc([C@@H](C)Nc2ccccc2C(=O)O)c2nc(N3CCOCC3)cc(=O)n2c1" in this assay.
active

----------
Assay: qHTS of pediatric cancer cell lines to identify multiple opportunities for drug repurposing: Primary screen for SK-N-MC cells (AID 1347093);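 note: plate controls were DMSO neutral control for no effect and bortezomib for full effect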
Settings: SK-N-MC viability, CellTiter-Glo luminescence, 48 h; series mostly up to 46 µM
Experimental: Drug repurposing or repositioning has been offered as a strategy for drug development in oncology programs. […] [1] Shen, M et al. Quantitative high-throughput phenotypic screening of pediatric cancer cell lines identifies multiple opportunities for drug repurposing. […] Cells were assayed in growth media at a density of 500-1,000 cells/well. […] After a 15 min incubation at room temperature, samples were analyzed for luminescence intensity using a ViewLux High-throughput CCD imager equipped with clear filters.
Records with an inconclusive call do not appear. Active and inactive are the calls of the source. Calls come from the whole dose curve; as a rule, active = well fitted cell-killing curve with a large enough effect; inconclusive = small, poorly fitted or top-dose-only effect; inactive = no such curve, though single readings can be large or run the other way.
Returns: one label drawn from active, inactive

>  <Compound>
Cc1cc(C=c2sc3nc4ccccc4n3c2=O)c(C)n1-c1ccccc1

>  <Category>
inactive

$$$$

Lab note: next compound to report on.
Just curious, what result did CCN(CC)CCCC(C)Nc1nc(C)cc(Nc2ccc3nc(C)cc(N)c3c2)n1 (stereo not given) get here?
inactive

----------
Assay: Quantitative High-Throughput drug screen in 47 multiple myeloma cell lines against the NCATS MIPE library collection: Delta47_JCRB cell viability assay (AID 1918925; note: potency is the fitted concentration of half-maximal effect; nearly all actives have a fitted effect of over 45% in size)
Conditions: Delta47 myeloma viability, CellTiter-Glo ATP, 48 h; series mostly up to 45.8 µM
Text: PI: Beverly A. Mock Ph.D. Laboratory of Cancer Biology and Genetics, Center for Cancer Research, National Cancer Institute, National Institute of Health, Bethesda, Maryland […] 5; Detector; 425V; Luminescence; Viewlux PerkinElmer. […] 1. […] Briefly, the corresponding myeloma cell lines were screened in 1,536-well plates with 500 cells, 5-uL per well for inhibition of cell viability (assessed by measuring ATP levels with CellTiterGlo). […]
Results filed as inconclusive are left out. Active and inactive are the calls of the source. Calls follow the shape of the dose curve; as a rule, active = well fitted cell-killing curve with a large enough effect; inconclusive = small, poorly fitted or top-dose-only effect, or effect the other way; inactive = no such curve, though single readings can be large or run the other way.
Mark one answer only. Choices: active, inactive

Examples from the recorded data:
>  <Molecule>
O=C(Nc1ccc(F)c(C(F)(F)F)c1)Nc1nnc(-c2ccncc2)s1

>  <Category>
active

$$$$
>  <Molecule>
CC(C)(N)C(=O)N[C@H](COCc1ccccc1)C(=O)N1CCC2(CC1)CN(S(C)(=O)=O)c1ccccc12

>  <Category>
active

$$$$
>  <Molecule>
CNC(=O)c1ccc(C)c(-n2c(C)cc(OCc3ccc(F)cc3F)c(Br)c2=O)c1

>  <Category>
active

$$$$
>  <Molecule>
COc1c(Cl)cc2c([nH]c3cnccc32)c1NC(=O)c1cccnc1C

>  <Category>
active

$$$$
>  <Molecule>
CCOc1cc(N2CCC(O)CC2)ccc1Nc1ncc2c(n1)N(C)c1ccccc1C(=O)N2C

>  <Category>
active

$$$$

What call does the record list for "O=C(NOC[C@H](O)CO)c1ccc(F)c(F)c1Nc1ccc(I)cc1F" ?
active

Data credit: PubChem BioAssay (NCATS)
